# measurement_target: HER3 (Homo sapiens)
# Sequence (P21860 684-1020): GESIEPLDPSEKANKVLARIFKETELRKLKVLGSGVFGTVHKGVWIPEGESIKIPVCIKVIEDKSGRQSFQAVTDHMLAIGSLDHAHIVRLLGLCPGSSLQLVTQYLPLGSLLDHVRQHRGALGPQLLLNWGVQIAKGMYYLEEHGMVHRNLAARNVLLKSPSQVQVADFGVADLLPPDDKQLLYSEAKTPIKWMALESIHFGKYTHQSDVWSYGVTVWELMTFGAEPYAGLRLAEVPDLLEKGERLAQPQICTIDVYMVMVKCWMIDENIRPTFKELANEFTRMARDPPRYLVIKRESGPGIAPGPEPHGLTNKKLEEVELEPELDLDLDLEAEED
# procedure_details: DSF dose-response thermal shift; HDX-MS binding site mapping
measure: IC50

### Prompt Returns the measured IC50 for the input compound. Input: "NS(=O)(=O)c1cccc(Nc2cc(-c3c[nH]c4ccccc34)ncn2)c1"
### Response ~4 µM
